Listing of recorded inhibition at 10 µM by entry.
target: human B1R receptor (hB1R) (Homo sapiens, UniProt P46663); construct: host or cells: CHO K1 cells; test: FLIPR Ca2+ assay on human bradykinin 1 receptor (CHO K1 hB1R cells); type: cell-based; settings: test substance 10 μM; CHO K1 cells with human B1R gene; agonist Lys-Des-Arg9-bradykinin 0.5 nM; compared to maximum achievable inhibition
Sequence (P46663 whole entry): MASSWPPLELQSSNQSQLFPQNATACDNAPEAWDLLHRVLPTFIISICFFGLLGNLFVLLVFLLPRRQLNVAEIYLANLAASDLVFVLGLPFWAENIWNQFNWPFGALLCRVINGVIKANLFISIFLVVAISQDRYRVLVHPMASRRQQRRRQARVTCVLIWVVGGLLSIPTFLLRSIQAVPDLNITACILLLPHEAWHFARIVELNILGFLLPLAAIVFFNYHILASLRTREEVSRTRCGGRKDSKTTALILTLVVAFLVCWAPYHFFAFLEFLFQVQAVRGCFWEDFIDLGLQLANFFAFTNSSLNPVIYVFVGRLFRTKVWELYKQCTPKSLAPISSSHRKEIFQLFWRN
quantity.name: inhibition at 10 µM (%)

molecule="COc1c(C)cc(S(=O)(=O)N(C)CCOCC(=O)N2CCn3c(CN(C)C)ccc3C2Cc2ccccc2)c(C)c1C (stereo not drawn) [Example 109]" quantity_name="inhibition at 10 µM" units=% number=102
molecule="Cc1cc(C)c(S(=O)(=O)N(C)CCOCC(=O)N2CCn3cccc3C2c2cccc(C(F)(F)F)c2)c(C)c1 (stereo not drawn) [Example 75]" quantity_name="inhibition at 10 µM" units=% number=63
molecule="COc1c(C)cc(S(=O)(=O)N(C)CCOCC(=O)N2CCn3c(CN4CCCCC4)ccc3C2c2ccccc2)c(C)c1C (stereo not drawn) [Example 107]" quantity_name="inhibition at 10 µM" units=% number=98
molecule="COc1cc(C)c(S(=O)(=O)N(C)CCOCC(=O)N2CCn3cccc3C2c2cccs2)c(C)c1 (stereo not drawn) [Example 60]" quantity_name="inhibition at 10 µM" units=% number=100
molecule="COc1cc(C)c(S(=O)(=O)N(CCOCC(=O)N2CCn3ccnc3C2)CC(C)C)c(C)c1C [Example 21]" quantity_name="inhibition at 10 µM" units=% number=31
molecule="CCCC1c2cccn2CCN1C(=O)COCCN(Cc1ccccc1)S(=O)(=O)c1c(C)cc(OC)c(C)c1C (stereo not drawn) [Example 123]" quantity_name="inhibition at 10 µM" units=% number=41
molecule="O=C(CC(NS(=O)(=O)c1ccc2ccccc2c1)c1ccccc1)N1CCn2c(Cc3ccncc3)ccc2C1 (stereo not drawn) [Example 169]" quantity_name="inhibition at 10 µM" units=% number=78
molecule="COc1cc(C)c(S(=O)(=O)N(CCOCC(=O)N2CCn3c(CN(C)C)ccc3C2c2cccs2)Cc2ccccc2)c(C)c1C (stereo not drawn) [Example 121]" quantity_name="inhibition at 10 µM" units=% number=101
molecule="COc1c(C)cc(S(=O)(=O)N(C)CCOCC(=O)N2CCn3c(CN(C)C)ccc3C2c2ccccc2)c(C)c1C (stereo not drawn) [Example 105]" quantity_name="inhibition at 10 µM" units=% number=100
molecule="COc1cc(C)c(S(=O)(=O)N(C)CCOCC(=O)N2CCn3cccc3C2C(C)(C)C)c(C)c1C (stereo not drawn) [Example 79]" quantity_name="inhibition at 10 µM" units=% number=101
molecule="COc1cc(C)c(S(=O)(=O)N(C)CCOCC(=O)N2CCn3c(CN4CCCCC4)ccc3C2c2ccccc2)c(C)c1C (stereo not drawn) [Example 149]" quantity_name="inhibition at 10 µM" units=% number=104
molecule="O=C(CC(NS(=O)(=O)c1ccc2ccccc2c1)c1ccccc1)N1CCn2c(ccc2-c2cccnc2)C1 (stereo not drawn) [Example 167]" quantity_name="inhibition at 10 µM" units=% number=32
molecule="COc1cc(C)c(S(=O)(=O)N(C)CCOCC(=O)N2CCn3cc(CCc4ccncc4)nc3C2)c(C)c1 [Example 178]" quantity_name="inhibition at 10 µM" units=% number=99
molecule="COc1cc(C)c(S(=O)(=O)N(CCOCC(=O)N2CCn3c(CN4CCCC4)ccc3C2c2ccccc2)CC(C)C)c(C)c1C (stereo not drawn) [Example 92]" quantity_name="inhibition at 10 µM" units=% number=102
molecule="COc1cc(C)c(S(=O)(=O)N(C)CCOCC(=O)N2CCn3cccc3C2C)c(C)c1 (stereo not drawn) [Example 53]" quantity_name="inhibition at 10 µM" units=% number=101
